Where do the numbers come from? From patent US5932545A.

Entries annotated with measured pIC50
- Test system: bovine capillary (adrenal) endothelial cells (BCE)
- Method Notes: endothelial cell migration assay (modified Boyden chamber)
- Format: cell-based
- Measurement Setup: 4 hours at 37° C., read-out: IC50, effect on endothelial cell migration
Square brackets hold non-standard residues; d marks the D form. Peptide text beside a SMILES is read from it.
Convention used: pIC50 is expressed as -log10 of the molar concentration.

Guide cases for pIC50, answers given:
Molecule	pIC50
CC[C@@H](C)[C@@H](NC(=O)[C@@H](NC(=O)CNC(C)=O)C(C)C)C(=O)N[C@H](C(=O)N[C@@H](CCCNC(=N)N)C(=O)N[C@H](C(=O)N[C@@H](CCCNC(=N)N)C(N)=O)[C@@H](C)CC)[C@@H](C)O [Ac-Gly-Val-D-Ile-Thr-Arg-Ile-Arg-NH2] (Ac-GV[dI]TRIR-NH2)	8.15
CC[C@@H](C)[C@@H](NC(=O)[C@@H](NC(=O)CNC(=O)[C@H](CC(=O)O)NC(=O)CNC(=O)[C@H](C)NC(=O)[C@@H](NC(=O)[C@@H](NC(=O)[C@H](CO)NC(=O)[C@H](C)NC(=O)[C@H](CO)NC(=O)[C@H](CO)NC(=O)[C@H](Cc1c[nH]c2ccccc12)NC(=O)[C@@H]1CCCN1C(=O)[C@@H](N)CO)C(C)C)[C@@H](C)O)C(C)C)C(=O)N[C@H](C(=O)N[C@@H](CCCNC(=N)N)C(=O)N[C@H](C(=O)N[C@@H](CCCNC(=N)N)C(=O)O)[C@@H](C)CC)[C@@H](C)O (H-SPWSSASVTAGDGV[dI]TRIR-OH)	8.00
CC[C@@H](C)[C@@H](NC(=O)[C@@H](NC(=O)CNC(=O)[C@H](CC(=O)O)NC(=O)CNC(=O)[C@H](C)NC(=O)[C@@H](NC(=O)[C@@H](NC(=O)[C@H](CO)NC(=O)[C@H](C)NC(=O)[C@@H](CO)NC(=O)[C@H](CO)NC(=O)[C@H](Cc1c[nH]c2ccccc12)NC(=O)[C@@H]1CCCN1C(=O)[C@@H](N)CO)C(C)C)[C@@H](C)O)C(C)C)C(=O)N[C@H](C(=O)N[C@@H](CCCNC(=N)N)C(=O)N[C@H](C(=O)N[C@@H](CCCNC(=N)N)C(=O)O)[C@@H](C)CC)[C@@H](C)O (H-SPWS[dS]ASVTAGDGV[dI]TRIR-OH)	9.05
CCNC(=O)[C@H](CCCNC(=N)N)NC(=O)[C@@H](NC(=O)[C@H](CCCNC(=N)N)NC(=O)[C@@H](NC(=O)[C@H](NC(=O)[C@@H](NC(=O)CNC(=O)[C@H](Cc1ccc(O)cc1)NC(C)=O)C(C)C)[C@H](C)CC)[C@@H](C)O)[C@@H](C)CC (Ac-YGV[dI]TRIR-NHEt)	7.30
CCNC(=O)[C@H](CCCNC(=N)N)NC(=O)[C@@H](NC(=O)[C@H](CCCNC(=N)N)NC(=O)[C@@H](NC(=O)[C@H](NC(=O)[C@@H](NC(=O)CNC(C)=O)C(C)C)[C@H](C)CC)[C@@H](C)O)[C@@H](C)CC [Ac-Gly-Val-D-Ile-Thr-Arg-Ile-Arg-NHEt] (Ac-GV[dI]TRIR-NHEt)	9.17

Measured pIC50 of CC[C@H](C)[C@H](NC(=O)[C@H](CCCNC(=N)N)NC(=O)[C@@H](NC(=O)[C@@H](NC(=O)[C@@H](NC(=O)CNC(=O)[C@H](CC(=O)O)NC(=O)CNC(=O)[C@H](C)NC(=O)[C@@H](NC(=O)[C@@H](NC(=O)[C@H](CO)NC(=O)[C@H](C)NC(=O)[C@@H](CO)NC(=O)[C@H](CO)NC(=O)[C@H](Cc1c[nH]c2ccccc12)NC(=O)[C@@H]1CCCN1C(=O)[C@@H](N)CO)C(C)C)[C@@H](C)O)C(C)C)[C@@H](C)CC)[C@@H](C)O)C(=O)N[C@@H](CCCNC(=N)N)C(=O)O (H-SPWS[dS]ASVTAGDGVITRIR-OH) : 9.05
